# EXPERIMENT_NOTES: Probe fluorescence ratio response to stearic acid relative to ADIFAB2
# Assay type: binding
# SETUP_CONDITIONS: response relative to ADIFAB2
OBSERVATION_TYPE: DR/DR SA
Number only, no unit.

Example results:
| MOLECULE | DR/DR SA |
| --- | --- |
| 72H 73Y 74G (protein, listed as Rattus norvegicus, PEPTIDE (1)...(131) wild-type rat intestinal fatty acid binding protein) AFDGTWKVDRNENYEKFMEKMGINVVKRKLGAHDNLKLTITQEGNKFTVKESSNFRNIDVVFELGVDFAYSHYGGTELTGTWTMEGNKLVGKFKRVDNGKELIAVREISGNELIQTYTYEGVEAKRIFKKE | 0.052 |
| 18V 31I 55L 73V 72A (protein, listed as Rattus norvegicus, PEPTIDE (1)...(131) wild-type rat intestinal fatty acid binding protein) AFDGTWKVDRNENYEKFVEKMGINVVKRKLIAHDNLKLTITQEGNKFTVKESSNLRNIDVVFELGVDFAYSAVDGTELTGTWTMEGNKLVGKFKRVDNGKELIAVREISGNELIQTYTYEGVEAKRIFKKE | 1.233 |

With those in mind, consider the next molecule.
Query string: Return DR/DR SA (reported value) for this molecule: 18I 31M 55M 72A (protein, listed as Rattus norvegicus, PEPTIDE (1)...(131) wild-type rat intestinal fatty acid binding protein) AFDGTWKVDRNENYEKFIEKMGINVVKRKLMAHDNLKLTITQEGNKFTVKESSNMRNIDVVFELGVDFAYSAADGTELTGTWTMEGNKLVGKFKRVDNGKELIAVREISGNELIQTYTYEGVEAKRIFKKE
Result string: 0.296
